test system: spontaneous hypertensive rats (systolic pressure of the caudal artery); experiment: Antihypertensive activity per os in spontaneous hypertensive rats; type: in vivo, rat; conditions: 3 mg/kg p.o., 1 h, percentage of the decrease of the systolic pressure
Decision: Pressure variations (pressure time 0 - less pressure after administration), 1 h >= 40% yields Criterion met, all other cases yield Criterion not met.

*Q* For this compound, is measured Pressure variations (pressure time 0 - less pressure after administration), 1 h 40% or higher? COC(=O)C1=C(C)NC(C)=C(C(=O)OCCN(C)Cc2ccccc2)C1c1cccc([N+](=O)[O-])c1 (centres unmarked) [Nicardipine, reference compound]
*A* Criterion met

*Q* # bool: Pressure variations (pressure time 0 - less pressure after administration), 1 h of COC(=O)C1=C(C)NC(C)=C(C(=O)OC)C1c1ccccc1[N+](=O)[O-] [Nifedipine, reference compound] >= 40%
*A* Criterion not met

*Q* # check: Pressure variations (pressure time 0 - less pressure after administration), 1 h of CCOC(=O)C1=C(C)NC(C)=C(C(=O)OCCN2CCc3ccccc3C2)C1c1cccc([N+](=O)[O-])c1 (centres unmarked) is greater than or equal to 40%
*A* Criterion not met

*Q* Hi, just wondering whether CC1=C(C(=O)OCCN2CCc3ccccc3C2)C(c2cccc([N+](=O)[O-])c2)C(C(=O)OC(C)C)=C(C)N1 (centres unmarked) shows Pressure variations (pressure time 0 - less pressure after administration), 1 h of 40% or higher.
*A* Criterion not met

*Q* For this compound, is measured Pressure variations (pressure time 0 - less pressure after administration), 1 h 40% or higher? COC(=O)C1=C(C)NC(C)=C(C(=O)OCCN2CCc3ccccc3C2)C1c1cccc([N+](=O)[O-])c1.Cl (centres unmarked)
*A* Criterion met

====

Collected LD50 at 336 h values appear next to each entry.
assay: in vivo; settings: mouse, mice of both sexes, oral, day 14 of observation
Answer format reminder: number followed by unit.

The following compounds have reported results that may help.
CC1=C(C(=O)OCCN2CCc3ccccc3C2)C(c2cccc([N+](=O)[O-])c2)C(C(=O)OC(C)C)=C(C)N1 (stereo not shown) [I, R = CH(CH3)2]	1000 mg/kg
COC(=O)C1=C(C)NC(C)=C(C(=O)OCCN(C)Cc2ccccc2)C1c1cccc([N+](=O)[O-])c1 (stereo not shown) [Nicardipine, reference compound]	350 mg/kg
COC(=O)C1=C(C)NC(C)=C(C(=O)OCCN2CCc3ccccc3C2)C1c1cccc([N+](=O)[O-])c1.Cl (stereo not shown) [I, R = CH3]	1000 mg/kg

Here is the next item to consider.
*Q* Give me measured LD50 at 336 h, please, for this compound: CCOC(=O)C1=C(C)NC(C)=C(C(=O)OCCN2CCc3ccccc3C2)C1c1cccc([N+](=O)[O-])c1 (stereo not shown) [I, R = C2 H5]
*A* 1000 mg/kg

====

Examples of compounds with documented Pressure variations (pressure time 0 - less pressure after administration), 5 h follow.
tested on: spontaneous hypertensive rats (systolic pressure of the caudal artery); experiment: Antihypertensive activity per os in spontaneous hypertensive rats; assay type: in vivo, rat; details: 3 mg/kg p.o., 5 h, percentage of the decrease of the systolic pressure
The response must be a number in % with no trailing unit.

Sample records with Pressure variations (pressure time 0 - less pressure after administration), 5 h:
COC(=O)C1=C(C)NC(C)=C(C(=O)OCCN(C)Cc2ccccc2)C1c1cccc([N+](=O)[O-])c1 (centres unmarked) [Nicardipine, reference compound]	21
CCOC(=O)C1=C(C)NC(C)=C(C(=O)OCCN2CCc3ccccc3C2)C1c1cccc([N+](=O)[O-])c1 (centres unmarked)	11
COC(=O)C1=C(C)NC(C)=C(C(=O)OC)C1c1ccccc1[N+](=O)[O-] [Nifedipine, reference compound]	9
COC(=O)C1=C(C)NC(C)=C(C(=O)OCCN2CCc3ccccc3C2)C1c1cccc([N+](=O)[O-])c1.Cl (centres unmarked)	49

*Q* Recall the reported Pressure variations (pressure time 0 - less pressure after administration), 5 h of CC1=C(C(=O)OCCN2CCc3ccccc3C2)C(c2cccc([N+](=O)[O-])c2)C(C(=O)OC(C)C)=C(C)N1 (centres unmarked) when tested on spontaneous hypertensive rats (systolic pressure of the caudal artery).
*A* 2
